systemUnderTest: AAD-13 (v2) (Sphingobium herbicidovorans, UniProt Q700X4)
Construct: His tag (C); made in house; host or cells: E. coli BL-21, pET-26b(+)
Sequence (Q700X4 other isoform, or with tags, fused parts or gaps): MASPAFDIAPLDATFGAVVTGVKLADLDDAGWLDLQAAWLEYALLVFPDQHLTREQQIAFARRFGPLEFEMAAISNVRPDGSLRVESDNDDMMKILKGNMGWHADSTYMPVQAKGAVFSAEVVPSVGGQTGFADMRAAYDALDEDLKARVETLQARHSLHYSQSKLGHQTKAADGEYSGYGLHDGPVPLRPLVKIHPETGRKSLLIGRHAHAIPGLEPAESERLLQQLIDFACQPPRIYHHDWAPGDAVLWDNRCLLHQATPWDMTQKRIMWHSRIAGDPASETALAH
Assay type: biochemical
measurementConditions: substrate 1 mM; rate as percentage of 2,4-D rate in same sample set; propionate rates divided by two
measure: % of 24D activity

For C[C@H](Oc1ccc(Cl)cc1Cl)C(=O)O , write its % of 24D activity.
233%

For CC(Oc1ccc(C(=O)c2ccc(Cl)cc2)cc1)C(=O)O (stereo not shown) , write its % of 24D activity.
64%

For CC(Oc1ccc(Cl)c(N)c1Cl)C(=O)O (stereo not shown) , write its % of 24D activity.
113%

For CC(Oc1ccc(F)cc1Cl)C(=O)O (stereo not shown) , write its % of 24D activity.
106%

For CC(Oc1ccc(Oc2ccc(Cl)cc2Cl)cc1)C(=O)O (stereo not shown) , write its % of 24D activity.
>100%

For O=C(O)COc1ccc(Cl)cc1Cl , write its % of 24D activity.
100%

For Nc1c(Cl)c(F)nc(OCC(=O)O)c1Cl , write its % of 24D activity.
67%
